- Tested on: ACHN renal
- EXPERIMENT_SUMMARY: NCI-60 one-dose screen, 48 h (100 = growth as untreated, 0 = no growth, -100 = all killed)
- APPLIED_CONDITIONS: 10 µM unless noted
The panel holds about 83,000 compounds, 20% with a hit somewhere; the sample as a whole holds those more often.
Threshold rule: growth greater than or equal to 80% is 1; below that, 0.

O=[N+]([O-])c1cnc[nH]1; 1
O=C(NCCN1CC1)C(=O)NCCN1CC1; 0
COc1ccc2c(c1)c(C1(O)CC(CSC#N)OC1=O)cn2C(=O)c1ccc(Cl)cc1 (configuration not stated); 1
CC[C@H](C)[C@@H]([C@@H](CC(=O)N1CCC[C@H]1[C@H](OC)[C@@H](C)C(=O)N[C@H](C)[C@@H](O)c1ccccc1)OC)N(C)C(=O)[C@@H](NC(=O)[C@@H](NC)C(C)C)C(C)C; 0
Cc1c(C)c([N+](=O)[O-])c(C)c(C)c1[N+](=O)[O-]; 1
CC(=O)OC[C@]1(C)C=C2C(=O)[C@](C)(O)C3(CC3)C(C)=C2[C@H]1OC(=O)N(C)CCN(C)C(=O)OC(C)(C)C; 0
C/C(=C\c1cc(C(F)(F)F)nn1CCNC(=O)OC(C)(C)C)[C@@H]1C[C@@H]2O[C@]2(C)CCC[C@H](C)[C@H](O)[C@@H](C)C(=O)C(C)(C)[C@@H](O)CC(=O)O1; 0
CN1CC(=O)N(O)C1(C)c1cccnc1 (configuration not stated); 1
Cn1cc(C=O)c2nccnc21; 1
N/C(=N\N=C\c1ccc(-c2ccccc2)cc1)N[N+](=O)[O-]; 0
O=C1CC2(CC3(Cl)C(Cl)=C(Cl)C2(Cl)C3(Cl)Cl)C(=O)O1 (configuration not stated); 1
CC(=O)/C=C/c1ccc2c(c1)OCO2; 1
O=[N+]([O-])c1cc(I)cc([N+](=O)[O-])c1; 1
O=C1OCCC1Br (configuration not stated); 1
C=CC[n+]1ccc(-c2cc[n+](CC=C)cc2)cc1; 1
COC(=O)[C@@]1(C)CC[C@]2(C)CC[C@]3(C)C4=CC(=O)c5c(cc(O)c(O)c5C)[C@]4(C)CC[C@@]3(C)[C@@H]2C1; 0
N#CCCNc1ccccc1; 1
COc1ccc(S(=O)(=O)N(Cc2ccc3c(c2)C=CC(C)(C)O3)c2ccccc2)cc1OC; 0
[Au+].[N-]=C=O.c1ccc(CN2[CH-]N(Cc3ccccc3)C(c3ccccc3)=C2c2ccccc2)cc1; 1
CC1(C)N=C(N)N=C(N)N1c1ccc(CCC(=O)Nc2ccc(S(=O)(=O)F)cc2)c(Cl)c1; 0
O=C1C2C(C(=O)[N]1[Hg][c]1cccs1)C1(Cl)C(Cl)=C(Cl)C2(Cl)C1(Cl)Cl (configuration not stated); 0
Nc1cc2nc3ccccc3nc2cc1N; 1
NC(=S)c1cn(C2OC(CO)C(O)C2O)c2ncnc(N)c12 (configuration not stated); 0
Cc1ccc(Nc2nc3c(s2)C2=CC[C@@H]4[C@H](CC[C@]5(C)C(=O)CC[C@@H]45)[C@@]2(C)CC3)cc1; 0
CN(C)C(=O)Oc1ccc(Br)cc1; 1
CC[C@H](C)[C@H](NC(=O)c1ccccn1)C(=O)N(C)[C@H](C[C@@H](OC(C)=O)c1nc(C(=O)N[C@@H](Cc2ccccc2)C[C@H](C)C(=O)OC)cs1)C(C)C; 0
